Every entry's value here was drawn from patent US12448373B2.

Quick reference: IC50 of the listed items.
target: CXCR7 (Homo sapiens, UniProt P25106); experiment: CXCR7 β-arrestin recruitment assay in CHO-CXCR7 cells (ProLink/EA β-galactosidase complementation), induced by human SDF-1a; conditions: assay buffer, SDF-1a at EC50 concentration
Sequence (P25106 whole entry): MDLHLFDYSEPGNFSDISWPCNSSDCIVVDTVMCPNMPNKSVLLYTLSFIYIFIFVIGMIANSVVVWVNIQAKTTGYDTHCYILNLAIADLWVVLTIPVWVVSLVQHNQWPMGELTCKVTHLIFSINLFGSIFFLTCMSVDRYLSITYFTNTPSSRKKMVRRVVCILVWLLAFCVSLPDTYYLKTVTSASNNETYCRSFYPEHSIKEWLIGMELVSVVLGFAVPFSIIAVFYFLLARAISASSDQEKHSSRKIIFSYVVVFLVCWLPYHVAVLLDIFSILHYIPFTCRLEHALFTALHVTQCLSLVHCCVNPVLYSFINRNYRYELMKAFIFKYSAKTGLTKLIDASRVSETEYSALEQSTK

>  <MOLECULE>
COc1cncc(C(C)(C)NC(=O)CC2(NC(=O)c3cc(-c4ccc(F)cc4F)on3)CN([C@H]3CC[C@@](C)(O)CC3)C2)c1 [Example 1.141]

>  <REPORTED_MEASUREMENT>
5 to 100 nM

$$$$

Problem: Please give the measured IC50 for this molecule: CC(C)(NC(=O)CC1(NC(=O)c2cc(-c3ccc(F)cc3F)on2)CN([C@H]2CC[C@](C)(O)CC2)C1)c1ccccn1 [Example 1.303]
Solution: < 5 nM

Problem: Please give the measured IC50 for this molecule: Cn1nc(-c2ccc(F)cc2F)cc1C(=O)NC1(CC(=O)NC(C)(C)c2cccc(Cl)c2)CN([C@H]2CC[C@](C)(O)CC2)C1 [Example 1.059]
Solution: 1000 to 20000 nM

Problem: Please give the measured IC50 for this molecule: Cc1cc(C)nc(C(C)(C)NC(=O)CC2(NC(=O)c3nnc(-c4ccc(F)cc4F)s3)CN(C3CCCCC3)C2)n1 [Example 1.070]
Solution: < 5 nM

###

target: CXCR7 (Homo sapiens, UniProt P25106); assay: CXCR7 β-arrestin recruitment assay in CHO-CXCR7 cells (ProLink/EA β-galactosidase complementation), induced by human SDF-1a; conditions: assay buffer, SDF-1a at EC50 concentration
READOUT_NAME: IC50

Problem: Please give the measured IC50 for this molecule: CC(C)(NC(=O)CC1(NC(=O)c2cn(-c3ccc(F)cc3F)nn2)CN(C2CCCCC2)C1)c1cccc(Cl)c1 [Example 1.076]
Solution: 5 to 100 nM

###

molecular target: UniProtKB P25106; assay: CXCR7 β-arrestin recruitment assay in CHO-CXCR7 cells (ProLink/EA β-galactosidase complementation), induced by human SDF-1a; settings: assay buffer, SDF-1a at EC50 concentration
pIC50: −log10 of the molar value.
Quick reference: pIC50 of the listed items.

Solved entries (count: 3):
>  <COMPOUND>
Cc1cc(Cl)cc(C(C)(C)NC(=O)CC2(NC(=O)c3cc(-c4ccc(F)cc4F)on3)CN([C@H]3CC[C@](C)(O)CC3)C2)c1 [Example 1.090]

>  <pIC50>
> 8.30

$$$$
>  <COMPOUND>
CC(C)(NC(=O)CC1(NC(=O)c2cnc(-c3ccc(F)cc3F)s2)CN([C@H]2CC[C@](C)(O)CC2)C1)c1cccc(Cl)c1 [Example 1.069]

>  <pIC50>
7.00 to 8.30

$$$$
>  <COMPOUND>
C[C@]1(O)CC[C@H](N2CC(CC(=O)NCc3cccc4[nH]ccc34)(NC(=O)c3cc(-c4ccc(F)cc4F)on3)C2)CC1 [Example 1.100]

>  <pIC50>
> 8.30

$$$$

Problem: Please give the measured pIC50 for this compound: CC(C)(NC(=O)CC1(NC(=O)c2cc(-c3ccc(F)cc3F)on2)CN([C@H]2CC[C@](C)(O)CC2)C1)c1cc(Cl)ccc1Cl [Example 1.088]
Solution: > 8.30

Problem: Please give the measured pIC50 for this compound: Cc1cc(Cl)cc(C(C)(C)NC(=O)CC2(NC(=O)c3cc(-c4ccc(F)cc4F)on3)CN([C@H]3CC[C@@](C)(O)CC3)C2)c1 [Example 1.083]
Solution: > 8.30

Problem: Please give the measured pIC50 for this compound: Cc1cccc(C(C)(C)NC(=O)CC2(NC(=O)c3cc(-c4ccc(F)cc4F)on3)CN(CC3(C)COC3)C2)n1 [Example 1.217]
Solution: 7.00 to 8.30

Problem: Please give the measured pIC50 for this compound: COc1cc(OC)nc(C(C)(C)NC(=O)CC2(NC(=O)c3nnc(-c4ccc(F)cc4F)s3)CN([C@H]3CC[C@](C)(O)CC3)C2)c1 [Example 1.342]
Solution: 7.00 to 8.30

Problem: Please give the measured pIC50 for this compound: CC(C)(NC(=O)CC1(NC(=O)c2cc(-c3ccc(F)cc3F)on2)CN(CC2CCCC2)C1)c1ccccn1 [Example 1.029]
Solution: 7.00 to 8.30
